Experiment: Volume of distribution at steady state in ICR mouse at 5 mg/kg, iv measured after 0.08 to 24 hrs by LC-MS/MS analysis
Details: in vivo, read-out: Vdss
Non-standard residues stand in square brackets, D forms with d. Residues, ends and D or L forms follow the SMILES beside them. NMeL = CN[C@@H](CC(C)C)C(=O)O; NMeV = CN[C@H](C(=O)O)C(C)C; Nva = CCC[C@H](N)C(=O)O; Sar = CNCC(=O)O
quantity_measured: Vd (L/kg)
Note: unit L/kg is implicit; provide only the numeric part.

Fill in: Vd of CCC[C@@H]1NC(=O)[C@H](CC(C)C)N(C)C(=O)[C@H](C(C)C)N(C)C(=O)[C@H](CC(C)C)N(C)C(=O)[C@H](CC(C)C)N(C)C(=O)[C@@H](C)NC(=O)[C@H](C)NC(=O)[C@H](CC(C)C)N(C)C(=O)[C@H](C(C)C)NC(=O)[C@H](CC(C)C)N(C)C(=O)CN(C)C1=O (cyclo(A[dA][NMeL][NMeL][NMeV][NMeL][Nva][Sar][NMeL]V[NMeL])) is ___
4

The values you see were collected from ChEMBL document CHEMBL5149989.
